Values were extracted from ChEMBL document CHEMBL2331240.

Recorded GI50 for the following compounds
PROTOCOL: Cytotoxicity against human SJ-G2 cells assessed as growth inhibition measured after 72 hrs by MTT assay
Type: functional
STATED_CONDITIONS: SJ-G2, 72 h
OUTCOME_MEASURE: GI50 (µM)

COc1ccc(CNC(=O)/C(C#N)=C/c2ccccc2)cc1: 17
COc1ccc(CNC(=O)/C(C#N)=C/c2ccc(Cl)o2)cc1: 13
N#C/C(=C\c1c(F)c(F)c(F)c(F)c1F)C(=O)c1ccc[nH]1: 23
COc1ccc(CNC(=O)/C(C#N)=C/c2ccc(C)cc2)cc1: 39
N#C/C(=C\c1cccc2ccccc12)C(=O)NCc1ccc(Cl)c(Cl)c1: 13
N#C/C(=C\c1c[nH]c2ccccc12)C(=O)c1c[nH]c2ccccc12: 13
COc1ccc(CNC(=O)/C(C#N)=C/c2ccoc2)cc1: 8
N#C/C(=C\c1ccc(Cl)cc1)C(=O)c1ccc[nH]1: 37
N#C/C(=C\c1ccc(Cl)cc1)C(=O)NCc1ccc(Cl)c(Cl)c1: 30
COc1ccc(CNC(=O)/C(C#N)=C/c2ccc(Cl)cc2)cc1: 11
N#C/C(=C\c1ccc([N+](=O)[O-])cc1)C(=O)c1c[nH]c2ccccc12: 37
N#C/C(=C\c1ccc2ccccc2c1)C(=O)NCc1ccc(Cl)c(Cl)c1: 49
COc1ccc(CNC(=O)/C(C#N)=C/c2ccc(Br)o2)cc1: 13
COc1ccc(CNC(=O)/C(C#N)=C/c2ccco2)cc1: 31
COc1ccc(CNC(=O)/C(C#N)=C/c2ccc(C)o2)cc1: 75
COc1ccc(CNC(=O)/C(C#N)=C/c2cccc3ccccc23)cc1: 15
N#C/C(=C\c1c(F)c(F)c(F)c(F)c1F)C(=O)c1c[nH]c2ccccc12: 14
COc1ccc(CNC(=O)/C(C#N)=C/c2cc(Br)co2)cc1: 23
N#C/C(=C\c1ccccc1)C(=O)NCc1ccc(Cl)c(Cl)c1: 43
COc1ccc(CNC(=O)/C(C#N)=C/c2ccc3ccccc3c2)cc1: 40

---

System: HT-29
PROTOCOL: Cytotoxicity against human HT-29 cells assessed as growth inhibition measured after 72 hrs by MTT assay
Format: functional
STATED_CONDITIONS: HT-29, 72 h
Friendly reminder: GI50 below 10 µM is label 1, at or above is label 0.

COc1ccc(CNC(=O)/C(C#N)=C/c2ccccc2)cc1: label 1
COc1ccc(/C=C(\C#N)C(=O)NCc2ccc(Cl)c(Cl)c2)cc1: label 0
COc1ccc(CNC(=O)/C(C#N)=C/c2cc(Br)co2)cc1: label 0
COc1ccc(CNC(=O)/C(C#N)=C/c2ccc[nH]2)cc1: label 0
COc1ccc(CNC(=O)/C(C#N)=C/c2ccoc2)cc1: label 1
N#C/C(=C\c1ccc[nH]1)C(=O)NCc1ccc(Cl)c(Cl)c1: label 0
COc1ccc(CNC(=O)/C(C#N)=C/c2ccc(Cl)cc2)cc1: label 1
N#C/C(=C\c1ccc(Cl)cc1)C(=O)c1ccc[nH]1: label 0
N#C/C(=C\c1cccc2ccccc12)C(=O)NCc1ccc(Cl)c(Cl)c1: label 1
COc1ccc(CNC(=O)/C(C#N)=C/c2ccc3ccccc3c2)cc1: label 0
N#C/C(=C\c1c(F)c(F)c(F)c(F)c1F)C(=O)c1ccc[nH]1: label 0
COc1ccc(CNC(=O)/C(C#N)=C/c2ccc(C)o2)cc1: label 0
N#C/C(=C\c1c(F)c(F)c(F)c(F)c1F)C(=O)c1c[nH]c2ccccc12: label 0
N#C/C(=C\c1ccc([N+](=O)[O-])cc1)C(=O)c1c[nH]c2ccccc12: label 0
N#C/C(=C\c1ccco1)C(=O)NCc1ccc(Cl)c(Cl)c1: label 0
COc1ccc(CNC(=O)/C(C#N)=C/c2cccc3ccccc23)cc1: label 0
COc1ccc(CNC(=O)/C(C#N)=C/c2ccc(C)cc2)cc1: label 0
COc1ccc(CNC(=O)/C(C#N)=C/c2ccco2)cc1: label 0
COc1ccc(CNC(=O)/C(C#N)=C/c2ccc(Cl)o2)cc1: label 1
N#C/C(=C\c1ccc(Cl)cc1)C(=O)NCc1ccc(Cl)c(Cl)c1: label 0
COc1ccc(CNC(=O)/C(C#N)=C/c2ccc(-c3ccccc3)o2)cc1: label 0
N#C/C(=C\c1c[nH]c2ccccc12)C(=O)c1c[nH]c2ccccc12: label 1
N#C/C(=C\c1ccccc1)C(=O)NCc1ccc(Cl)c(Cl)c1: label 0
N#C/C(=C\c1ccc2ccccc2c1)C(=O)NCc1ccc(Cl)c(Cl)c1: label 0
